All figures here come from the supplement of paper PMC8253809.

Tested on: SUDIPGXIX (diffuse intrinsic pontine glioma line)
Measurement Description: EC50 (inflection of fitted growth-inhibition curve) (log10 M)
Please assign N whenever EC50 (log10 M) is at or above -7, and Y whenever it is below.

Previously resolved entries follow.
Molecule: N[C@H]1C[C@@H]1c1ccc(-c2cccc(O)c2)cc1 [OG-L002]
System Tested: SUDIPGXIX
Qualitative Label: N

Molecule: Cc1nc(Nc2ncc(C(=O)Nc3c(C)cccc3Cl)s2)cc(N2CCN(CCO)CC2)n1 [DASATINIB]
System Tested: SUDIPGXIX
Qualitative Label: N

Molecule: Cc1c(C2CCN(CCc3ccccc3)CC2)noc1-c1ccc(Cl)cc1 [L-741,742]
System Tested: SUDIPGXIX
Qualitative Label: N

Molecule: CC(C)C[C@H](NC(=O)CNC(=O)c1cc(Cl)ccc1Cl)B(O)O [IXAZOMIB]
System Tested: SUDIPGXIX
Qualitative Label: Y

Molecule: O=C(Nc1ccccc1-c1cn2c(CN3CCNCC3)csc2n1)c1cnc2ccccc2n1 [SRT1720]
System Tested: SUDIPGXIX
Qualitative Label: N

Molecule: CCN1CCN(Cc2ccc(Nc3ncc(F)c(-c4cc(F)c5nc(C)n(C(C)C)c5c4)n3)nc2)CC1 [ABEMACICLIB]
System Tested: SUDIPGXIX
Qualitative Label: N

Request: Is -7 strictly greater than the molecule's reported EC50 (log10 M)? molecule: COc1cc(F)ccc1-c1ncnc(Nc2cccc(CS(C)(=N)=O)c2)n1 (configuration not stated)
Result: N

Request: Say whether its EC50 (log10 M) is strictly beneath -7. Entry: `c1ccc2c(-c3cnn4cc(-c5ccc(N6CCNCC6)cc5)cnc34)ccnc2c1`
Result: N

Request: Does this molecule meet the criterion EC50 (log10 M) < -7? CC(C)N(CCCNC(=O)Nc1ccc(C(C)(C)C)cc1)C[C@H]1O[C@@H](n2cc(Br)c3c(N)ncnc32)[C@H](O)[C@@H]1O [SGC0946]
Result: N

Request: hey, is EC50 (log10 M) for Nc1ccc2ncnc(NCCc3ccc(Oc4ccccc4)cc3)c2c1 [EVP4593] lower than -7 or not?
Result: Y

Request: Dear reviewer, please state whether CCCS(=O)(=O)c1nc(NC2CC2)cc(-c2ccc3c(ccn3C3CC(C)(C)NC(C)(C)C3)c2)n1 [NVS-1] has EC50 (log10 M) strictly beneath -7.
Result: N

---

System: HGGX39 (paediatric high-grade glioma line)
Measurement Description: area under dose-response curve of % growth inhibition (log2 RLU vs DMSO / staurosporine), 1e-11 to 1e-4 M (% x log10 M); higher = more growth inhibition
Below is a list of entries, each paired with its recorded area under dose-response curve value.
Output spec: single numeric token, no unit.

Request: Look up and state reported area under dose-response curve for `C=C[C@]1(C)C[C@@H](OC(=O)CSC(C)(C)CNC(=O)[C@H](N)C(C)C)[C@]2(C)[C@H](C)CC[C@]3(CCC(=O)[C@H]32)[C@@H](C)[C@@H]1O`
Result: 42.1

Request: Answer with the recorded area under dose-response curve for the compound listed here: `CC(C)N(CCCNC(=O)Nc1ccc(C(C)(C)C)cc1)C[C@H]1O[C@@H](n2cc(Br)c3c(N)ncnc32)[C@H](O)[C@@H]1O`
Result: 14.8

Request: Return value of area under dose-response curve for input COc1cc(NCc2ccc3nc(N)nc(N)c3c2C)cc(OC)c1OC [TRIMETREXATE] , no commentary.
Result: 28.7

Request: Please report the measured area under dose-response curve for `CC(C)C[C@H](NC(=O)CNC(=O)c1cc(Cl)ccc1Cl)B(O)O`
Result: 302

Request: Output measured area under dose-response curve for this item: `CC(C)(C#N)c1cc(Cn2cncn2)cc(C(C)(C)C#N)c1`
Result: 1.48

Request: Check the records and state area under dose-response curve for `COc1cc(Nc2c(C#N)cnc3cc(OCCCN4CCN(C)CC4)c(OC)cc23)c(Cl)cc1Cl`
Result: 71.8

Request: Item `O=c1[nH]cc(F)c(=O)[nH]1` : provide area under dose-response curve
Result: 10.6

Request: Name the recorded area under dose-response curve of the item `C[C@]1(c2nc3c(C(N)=O)cccc3[nH]2)CCCN1` in your answer.
Result: 0

Request: Fill in area under dose-response curve for record `CCN(c1cc(-c2ccc(CN3CCOCC3)cc2)cc(C(=O)NCc2c(C)cc(C)[nH]c2=O)c1C)C1CCOCC1`
Result: 1.99

Request: Kindly indicate its recorded area under dose-response curve. Item: CCCCC(CC)CNC(=N)NC(=N)NCCCCCCNC(=N)NC(=N)NCC(CC)CCCC (stereo not given)
Result: 126

Request: Input `CCOC(=O)c1ccnc(CNCC(=O)N(CC)CCN(C)C)c1` , output reported area under dose-response curve.
Result: 7.74

Request: Note area under dose-response curve for the compound shown: `CCN1CCN(Cc2ccc(Nc3ncc(F)c(-c4cc(F)c5nc(C)n(C(C)C)c5c4)n3)nc2)CC1`
Result: 193

Request: # return recorded area under dose-response curve for entry `O=C([C@@H](Cc1cccc(C(F)(F)F)c1)NS(=O)(=O)c1cc(F)c2c(c1)CCNC2)N1CCCC1`
Result: 4.9

Request: Using the record for `CCc1nc(N)nc(N)c1-c1ccc(Cl)cc1` , state its measured area under dose-response curve.
Result: 26.5

Request: Assign area under dose-response curve to the following record: `CCOC(=O)c1ccc(C#Cc2ccc3c(c2)C(C)(C)CCS3)nc1`
Result: 27.7

Request: Return reported area under dose-response curve. Input compound: `CNC(=O)c1cc(Oc2ccc(NC(=O)Nc3ccc(Cl)c(C(F)(F)F)c3)cc2)ccn1`
Result: 77

Request: In one line, give reported area under dose-response curve of the entry `COc1ccc(CCc2nc3cc(-c4c(C)noc4C)ccc3n2C[C@H](C)N2CCOCC2)cc1Cl` .
Result: 14

Request: Respond only with area under dose-response curve recorded for `COc1cc2c(cc1-c1c(C)noc1C)ncc1[nH]c(=O)n([C@H](C)c3ccccn3)c12`
Result: 47.5

Request: Please indicate area under dose-response curve recorded for `Cn1cc(CCn2cnc(-c3cnn(C)c3)c2-c2ccc(C#N)cc2)cn1`
Result: 16.5

Request: Answer with the recorded area under dose-response curve for the compound listed here: c1ccc(-c2ccc(C(c3ccccc3)n3ccnc3)cc2)cc1 (stereo not given)
Result: 30.5

---

System: HGGX39
Measurement Description: EC50 (inflection of fitted growth-inhibition curve) (log10 M)
Property: EC50 (log10 M)
Output: the number by itself.

Worked examples follow.
Input Smiles: CC(C)(C)c1cc(C(C)(C)C)c(NC(=O)c2c[nH]c3ccccc3c2=O)cc1O
Property: EC50 (log10 M)
Observed Result: -5.04
--
Input Smiles: CC[C@H](C)C(=O)O[C@H]1CCC=C2C=C[C@H](C)[C@H](CC[C@@H]3C[C@@H](O)CC(=O)O3)[C@H]21
Property: EC50 (log10 M)
Observed Result: -4.97
--
Input Smiles: CCN1CCN(c2cc(-c3ccc(F)cc3)c3c(n2)CCCCCC3)CC1
Property: EC50 (log10 M)
Observed Result: -4.94
--
Input Smiles: C=CCn1c(=O)c2cnc(Nc3ccc(N4CCN(C)CC4)cc3)nc2n1-c1cccc(C(C)(C)O)n1
Property: EC50 (log10 M)
Observed Result: -5.05

Now take the following molecule into account.
Request: Quickly give me recorded EC50 (log10 M) for `O=C(NCC1(c2nc(-c3ccccc3)cs2)CCOCC1)c1cccc(-c2noc(C(F)(F)F)n2)c1`
Result: -4.9

---

Test system: SUDIPGXXI (diffuse intrinsic pontine glioma line)
Measurement Description: area under dose-response curve of % growth inhibition (log2 RLU vs DMSO / staurosporine), 1e-11 to 1e-4 M (% x log10 M); higher = more growth inhibition
Below, each entry is listed with its recorded area under dose-response curve.
Quick one: just the number, no unit, thanks!

Compound: O=C(c1ccccc1)c1ccc2nc(NC(=O)c3csc(C4CCN(c5ncnc6ccsc56)CC4)n3)[nH]c2c1
System Tested: SUDIPGXXI
area under dose-response curve: 147
--
Compound: Fc1ccc(N2CCN(CCC3OCCc4ccccc43)CC2)cc1 (stereo not given)
System Tested: SUDIPGXXI
area under dose-response curve: 87.1
--
Compound: N=C(N)c1ccc(N=NNc2ccc(C(=N)N)cc2)cc1
System Tested: SUDIPGXXI
area under dose-response curve: 53.1
--
Compound: CCCCc1oc2ccc(NS(C)(=O)=O)cc2c1C(=O)c1ccc(OCCCN(CCCC)CCCC)cc1
System Tested: SUDIPGXXI
area under dose-response curve: 225

Request: Assign area under dose-response curve to the following record: `O=C(c1ccc(Nc2nccc(-c3cc4ccccc4s3)n2)cc1)N1CCC(N2CCCC2)CC1`
Result: 165

---

Tested on: HGGX39
Measurement Description: area under dose-response curve of % growth inhibition (log2 RLU vs DMSO / staurosporine), 1e-11 to 1e-4 M (% x log10 M); higher = more growth inhibition
Reported area under dose-response curve is given for each of the following compounds.

Input Smiles: CS(=O)(=O)c1ccc([C@@H](O)[C@@H](CF)NC(=O)C(Cl)Cl)cc1
System Tested: HGGX39
area under dose-response curve: 15.6
//
Input Smiles: N=C(N)c1ccc(N=NNc2ccc(C(=N)N)cc2)cc1
System Tested: HGGX39
area under dose-response curve: 84.7
//
Input Smiles: C#Cc1cccc(Nc2ncnc3cc(OCCOC)c(OCCOC)cc23)c1
System Tested: HGGX39
area under dose-response curve: 34.2
//
Input Smiles: NCCOc1cc(C(=O)Nc2cc(OCCN)c3ccccc3n2)nc(C(=O)Nc2cc(OCCN)c3ccccc3n2)c1
System Tested: HGGX39
area under dose-response curve: 58.1
//
Input Smiles: CC(C)NC[C@@H](C(=O)N1CCN(c2ncnc3c2[C@H](C)C[C@H]3O)CC1)c1ccc(Cl)cc1
System Tested: HGGX39
area under dose-response curve: 11.9

Request: Supply area under dose-response curve measured with HGGX39 for `N#CC[C@H](C1CCCC1)n1cc(-c2ncnc3[nH]ccc23)cn1` .
Result: 44.9
